Assay: Cytotoxicity against mouse MDR1 transfected L5178YvMDR cell line
Listing: IC50 of selected compounds
Assay metric: IC50 (µM)

Record smiles | Recorded value
CC(C)(C)OC(=O)N1C2C3C4N(C(=O)OC(C)(C)C)C5C(C1[C@]5(CO)[C@H]3c1ccccc1)[C@@H](c1ccccc1)[C@@]24CO | 3.2
OC[C@]12C3C4C1N(Cc1ccccc1)C1C(C(N3Cc3ccccc3)[C@]1(CO)[C@H]4c1ccccc1)[C@H]2c1ccccc1 | 13.3
CN1C2C3C4N(C)C5C(C1[C@]5(CO)[C@H]3c1ccccc1)[C@@H](c1ccccc1)[C@@]24CO | 7.5
O=C(Oc1ccccc1)N1C2C3C4N(C(=O)Oc5ccccc5)C5C(C1[C@]5(CO)[C@H]3c1ccccc1)[C@@H](c1ccccc1)[C@@]24CO | 21
